Tested on: MDA-MB-231
Assay: NCI tumour cell line growth inhibition, 48 h
Active and inactive are the calls of the source. Rule as the data show it: active = GI50 up to about 1.1 µM and inactive = higher.
# valid calls are active, inactive; nothing else

Name the outcome recorded for COC1=CC(=O)C(C2CC(=O)c3c(O)cc(O)cc3O2)=CC1=O (centres undefined) in the assay.
inactive

Name the outcome recorded for COC(=O)c1cc(O)nc(O)n1 in the assay.
inactive

Name the outcome recorded for CSc1nc2c(c(=O)[nH]1)N=C(c1ccc(Cl)cc1)CC(c1ccccc1)N2 (centres undefined) in the assay.
inactive

Name the outcome recorded for O=C(Cn1c(C(=O)/C=C/c2ccc(Cl)c(Cl)c2)nc2ccccc21)c1ccccc1 in the assay.
inactive

Name the outcome recorded for O=C(O)CC12CC3CC(CC(O)(C3)C1)C2 in the assay.
inactive

Name the outcome recorded for Cn1c(=O)cc(N2CCCC2)[nH]c1=O in the assay.
inactive

Name the outcome recorded for C[C@H]1/C(=C/C(=O)OCCN(C)C)CC[C@H]2[C@H]1C(=O)C[C@H]1C(C)(C)[C@@H](O)CC[C@]21C in the assay.
inactive

Name the outcome recorded for CC1(C)CNC(=O)C2(CCCO2)CNC(C)(C)CNC(=O)C2(CCCO2)CN1 (centres undefined) in the assay.
inactive

Name the outcome recorded for CC(=O)ONC(C(=O)C(C)(C)C)C(=O)C(C)(C)C in the assay.
inactive

Name the outcome recorded for CCC(CN(C)C)C(=O)c1ccco1 (centres undefined) in the assay.
inactive

Name the outcome recorded for O=C1c2cc3c(cc2CC12Cc1ccc4c(c1C2=O)CCC4)CCCC3 (centres undefined) in the assay.
inactive

Name the outcome recorded for Clc1ccc(-c2cn3c(nc4ccccc43)c(-c3ccccc3)n2)cc1 in the assay.
inactive

Name the outcome recorded for NC(=S)NNC(=S)NC(=O)c1ccco1 in the assay.
inactive

Name the outcome recorded for CCOC(O)C(F)(F)F (centres undefined) in the assay.
inactive

Name the outcome recorded for C[N+]1(C)CN(c2ccccc2)C2(CCN(CCCC(=O)c3cccs3)CC2)C1=O in the assay.
inactive

Name the outcome recorded for Oc1ccc(-c2nc(-c3cccnc3)c(-c3ccc(F)cc3)[nH]2)cc1 in the assay.
inactive

Name the outcome recorded for NC(=O)NC(=O)c1cnccn1 in the assay.
inactive

Name the outcome recorded for C/C=C/[C@@]1(OC(=O)c2ccccc2)C[C@@H]2CCCC[C@@H]21 in the assay.
inactive

Name the outcome recorded for CC(C)(C)OC(=O)NNCC(O)COc1ccccc1 (centres undefined) in the assay.
inactive

Name the outcome recorded for CC(C)(C)N/C(N)=N/C#N in the assay.
inactive

Name the outcome recorded for COc1ccc2c(c1)-c1[nH]c3ccc(OC)cc3c1CC2 in the assay.
inactive

Name the outcome recorded for CCOC(=O)c1ccc(NCC#CCN2CCCCC2)cc1 in the assay.
inactive

Name the outcome recorded for O=C1Nc2ccccc2/C1=N/NC(=S)N1CCCCC1 in the assay.
active

Name the outcome recorded for O=S(=O)(c1ccc(Br)cc1)N1CCN(S(=O)(=O)c2ccc(Br)cc2)CC1 in the assay.
inactive

Where do the numbers come from? From ChEMBL document CHEMBL1201862.
